targetSystem: 3-oxo-5-alpha-steroid 4-dehydrogenase 2 (Homo sapiens)
Sequence (P31213 whole entry): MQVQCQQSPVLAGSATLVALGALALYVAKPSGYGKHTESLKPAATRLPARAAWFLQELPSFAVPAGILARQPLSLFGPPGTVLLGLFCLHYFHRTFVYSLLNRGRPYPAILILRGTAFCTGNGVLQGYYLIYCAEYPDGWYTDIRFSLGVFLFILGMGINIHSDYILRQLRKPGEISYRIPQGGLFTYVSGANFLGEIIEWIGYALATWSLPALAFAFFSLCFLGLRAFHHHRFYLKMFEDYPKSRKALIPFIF
assayDetails: In vitro inhibitory activity against Steroid 5-alpha-reductase was determined in human prostatic tissue expressed as apparent inhibition constant; Range is 7-12
runParameters: read-out: Ki app
measurementLabel: Ki

Provide value of Ki for this record tested with 3-oxo-5-alpha-steroid 4-dehydrogenase 2 (Homo sapiens): CC(C)N(C(=O)[C@H]1CCC2C3C=CC4=CC(C(=O)O)=CC[C@]4(C)C3CC[C@@]21C)C(C)C (stereo partly specified)
7 nM

---

targetSystem: Steroid 5-alpha-reductase (Rattus norvegicus, UniProt P24008+P31214)
Sequence (P24008 whole entry): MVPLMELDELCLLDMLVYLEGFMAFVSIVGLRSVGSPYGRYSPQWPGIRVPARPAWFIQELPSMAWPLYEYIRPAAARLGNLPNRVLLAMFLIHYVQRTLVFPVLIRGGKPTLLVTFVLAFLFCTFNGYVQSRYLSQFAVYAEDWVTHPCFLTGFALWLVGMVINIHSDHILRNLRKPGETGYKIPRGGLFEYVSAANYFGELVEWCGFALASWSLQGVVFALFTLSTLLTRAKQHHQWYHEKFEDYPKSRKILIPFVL
Sequence (P31214 whole entry): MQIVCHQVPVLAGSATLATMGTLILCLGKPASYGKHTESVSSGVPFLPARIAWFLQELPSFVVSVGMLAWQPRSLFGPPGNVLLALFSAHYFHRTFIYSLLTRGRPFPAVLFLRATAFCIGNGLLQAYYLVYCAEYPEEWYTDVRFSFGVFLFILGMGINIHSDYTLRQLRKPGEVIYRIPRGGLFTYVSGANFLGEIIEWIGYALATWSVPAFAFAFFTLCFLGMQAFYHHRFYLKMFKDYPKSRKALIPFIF
assayDetails: In vitro inhibition of Steroid 5-alpha-reductase in rat ventral prostates.
Type: tissue-based, Prostate gland
measurementLabel: Ki app (nM)
// note: answer is a bare numeric in nM

Answered cases to consult:
# molecule, unitString, measurement
rows = [
    ("CC(C)N(C(=O)[C@H]1CCC2C3CCC4=C[C@@H](C(=O)O)CC[C@]4(C)C3CC[C@@]21C)C(C)C (stereo partly drawn)", "nM", 2000),
    ("CC(C)(C)NC(=O)[C@H]1CC[C@H]2[C@@H]3CC[C@H]4C=C(C(=O)O)CC[C@]4(C)[C@H]3CC[C@]12C", "nM", 11),
]

Value lookup for Ki app; key = CC1=C(C(=O)O)CC[C@@]2(C)C1=CCC1C2CC[C@@]2(C)C1CC[C@@H]2C(=O)N(C(C)C)C(C)C (stereo partly drawn)
70

CC(C)N(C(=O)[C@H]1CCC2C3CC=C4C=C(C(=O)O)CC[C@]4(C)C3C=C[C@@]21C)C(C)C (stereo partly drawn) ?
47

What do you have for CC(C)N(C(=O)[C@H]1CC[C@H]2[C@@H]3CC[C@H]4CC(C(=O)O)CC[C@]4(C)[C@H]3CC[C@]12C)C(C)C (stereo partly drawn) ?
340

Another molecule to look at: CC(C)N(C(=O)[C@H]1CCC2C3CC[C@H]4C=C(C(=O)O)C=C[C@]4(C)C3CC[C@@]21C)C(C)C (stereo partly drawn)
65

Same again, this time with CC(C)N(C(=O)[C@H]1CCC2C3CC=C4C=C(C(=O)O)CC[C@@H]4C3CC[C@@]21C)C(C)C (stereo partly drawn)
140

What about this molecule? C[C@]12CCC(C(=O)O)=CC1=CCC1C2CC[C@@]2(C)C1CC[C@@H]2C#N (stereo partly drawn)
140
